EXPERIMENTAL READOUT: melting point

Examples with answers:
COMPOUND | melting point
CN1C(=O)C2(COc3cc4c(cc32)OCCO4)c2ccccc21 (stereo unspecified) | 152 to 154 °C
CCCCCCCCc1ccc(-c2ncc(OCC(C)OC(=O)CCCCCC)cn2)cc1 (stereo unspecified) | 33 to 34.3 °C
Nc1nc2c(s1)CCN(CC=Cc1ccccc1OCc1ccccc1)CC2 | 103 to 107 °C
CCCOc1ccc(OC)cc1C(N)=O | 83 to 87 °C
CO[C@@H](Cc1ccc(OCCc2nc(-c3cc(C)cc(C)c3)oc2C)c2ccsc12)C(=O)O | 184 to 185 °C

So what does the record say about melting point for CC(C)c1nc2ccc(C=O)cc2nc1C(C)C ?
53 to 55 °C

----------
Recorded melting point values for a group of compounds are listed next.

Examples with answers:
COMPOUND | melting point
CC(C)c1cccc(C(C)C)c1NC(=O)Nc1cccc2ccc(Oc3ccc4nc(COc5ccc(CC6SC(=O)NC6=O)cc5)n(C)c4c3)cc12 (centres undefined) | 164 to 169 °C
Cc1cc(-c2ccc(C(F)(F)F)cc2)nc2c(C(=O)Nc3cccc(S(N)(=O)=O)c3)cnn12 | 270 to 272 °C
Oc1cccc(C=C2c3ccccc3Cc3ccccc32)c1 | 196 °C
CCCOC1(C)CN(C(=O)Nc2ccc(C(F)(F)F)cc2)N=C1c1ccc(Cl)cc1 (centres undefined) | 135 to 138 °C

So what does the record say about melting point for COc1ccc(-c2ccc(C#N)cc2)cc1-c1nc2cc(C#N)ccc2[nH]1 ?
289 to 290 °C

So what does the record say about melting point for COC(=O)c1cccc(-c2nc(-c3cccc(OC(F)(F)F)c3)cs2)c1 ?
84 to 85 °C

So what does the record say about melting point for ClC(Cl)(Cl)C1OCc2ccccc2O1 (centres undefined) ?
167 to 169 °C

So what does the record say about melting point for Cc1c(NC(=O)c2ccc(-c3ccc4c(c3)CCO4)cc2)ccc2cc(CN3CCCC3)cnc12 ?
176 to 177 °C

So what does the record say about melting point for CC(C)(C)OC1CCC2(C)C(=CCC3C4CCC(=O)C4(C)CCC32)C1 (centres undefined) ?
185 to 187 °C

----------
Recorded melting point values for a group of compounds are listed next.

Examples with answers:
COMPOUND | melting point
CCCn1c(=O)c2[nH]c(-c3cc(C)n(CC(=O)Nc4ccccc4)n3)nc2n(CCC)c1=O | 255 to 257 °C
CCOC(=O)C(CO)c1ccc(OCC)cc1 (stereo not given) | 35 to 36 °C
CCOC(=O)c1cc2cc(NC(=O)C[C@H]3O[C@H](c4cccc(OC)c4OC)c4cc(Cl)ccc4N(CC(C)(C)COC(C)=O)C3=O)ccc2[nH]1 | 200 to 201 °C

So what does the record say about melting point for CC1Cc2cc3c(cc2C(c2ccc([N+](=O)[O-])cc2)=NN1C(=O)CCCN)OCO3 (stereo not given) ?
110 to 112 °C

So what does the record say about melting point for CS(=O)(=O)OCCCOC(=O)c1[nH]c(-c2ccccc2)c2cc(Cl)ccc12 ?
155 to 158 °C

----------
Recorded melting point values for a group of compounds are listed next.

So what does the record say about melting point for CCOP(=O)(CNC(=O)OC(C)(C)C)CNC(=O)OC(C)(C)C ?
118 to 120 °C

So what does the record say about melting point for CCn1c(=N)c(-c2ccsc2)cc2cnc(Nc3ccccc3)nc21 ?
220 to 222 °C

So what does the record say about melting point for CCOC(=O)c1ccoc1COc1cc(-c2nn(C)c(OC(F)F)c2Cl)c(F)cc1Cl ?
59 to 61 °C

So what does the record say about melting point for NC(=O)CN1C(=O)CN2C(=O)CCC12 (stereo not given) ?
182 to 185 °C

So what does the record say about melting point for COC(=O)C[C@H]1CC[C@H](n2nc(-c3c(-c4ccccc4)nn4ccccc34)ccc2=O)C1 (relative stereo) ?
105 to 107 °C

So what does the record say about melting point for CCCCC(CC)Cn1c2cc(CO)ccc2c2ccc(CO)cc21 (stereo not given) ?
119 to 120 °C
